Tested on: glycogen synthase kinase-3 (GSK3A per assay name; protocol says GSK3B)
assay.name: GSK3 binders on small-molecule microarrays, primary screen, biochemical, small-molecule microarray, 635 nm fluorescence, GSK3A (AID 1103); further: the record names both GSK3A and GSK3B
assay.conditions: small-molecule microarray binding, fluorescence 635 nm; higher = more signal
Mark 1 (yes) for reported composite z-score of 0.2 or greater; mark 0 (no) for anything smaller.

These solved cases illustrate the format of a correct answer.
- molecule: "CON(C)C(=O)c1nnc2c(n1)[nH]c1ccccc12"
  qualitative.label: "1 (yes)"
- molecule: "CC(CCN1CCc2nc(-c3ccccc3)c(-c3ccccc3)cc2C1)=NO[C@@H](C)c1cc(-c2c(C)cc(C)cc2C)no1"
  qualitative.label: "0 (no)"
- molecule: "CC(CCN1CCc2nc(-c3ccccc3)c(-c3ccccc3)cc2C1)=NOC(C)CN1CCCc2nc(C)c(C)cc21 (stereo not given)"
  qualitative.label: "1 (yes)"
- molecule: "CON=C(C)CCN1CCc2nc(-c3ccccc3)c(-c3ccccc3)cc2C1"
  qualitative.label: "0 (no)"
- molecule: "CCc1cc2c(nc1CC)CCN(CCC(C)=NOC[C@@H](C)[C@H](OCc1ccccc1)C(C)C)C2"
  qualitative.label: "0 (no)"

Request: Please check the record CCOC(=O)[C@H](Cc1ccccc1)NC(=O)CCC1CC(OC(=O)NCc2cccc3ccccc23)CC2(CCCC(COC(=O)NCCOc3ccccc3)O2)O1 (stereo not given in full) and state if its composite z-score is at or above 0.2.
Response: 1 (yes)

Request: Please check the record `CC(=O)OC[C@H]1O[C@@H](ON=C(C)CCN2CCCCc3nc(C)c(C)cc32)[C@H](OC(C)=O)[C@@H](OC(C)=O)[C@@H]1OC(C)=O` and state if its composite z-score is at or above 0.2.
Response: 1 (yes)

Request: Please check the record `O=C1[C@H]2[C@H]3[C@H](O)[C@H](O)CC(=NOC[C@@H](O)COCc4ccco4)[C@@H]3CC[C@H]2C(=O)N1C1CCCCC1` and state if its composite z-score is at or above 0.2.
Response: 1 (yes)

Request: Please check the record COC(=O)[C@H](C)NC(=O)CCC1CC(OC(=O)NCCc2ccc(F)cc2)CC2(CCCC(COC(=O)NCc3ccccc3)O2)O1 (stereo not given in full) and state if its composite z-score is at or above 0.2.
Response: 1 (yes)

Request: Please check the record `CCN1C(=O)[C@H]2[C@H]3[C@H](O)[C@H](O)CC(=NO[C@@H]4O[C@H](COC(C)=O)[C@@H](OC(C)=O)[C@H](OC(C)=O)[C@H]4OC(C)=O)[C@@H]3CC[C@H]2C1=O` and state if its composite z-score is at or above 0.2.
Response: 1 (yes)

====

assay.name: FRG1 promoter luciferase signal modulators, primary screen, FRG1 inhibition for FSHD, cell-based, C2C12 myotubes, firefly/Renilla luciferase, luminescence (AID 1084)
assay.conditions: higher = more signal, called active from +8 up or from −8 down
Activity calls are given as the source filed them.
experimental.readout: z-score

- compound: "CC(=O)OC[C@H]1O[C@H](CCON=C(C)C)C=C[C@@H]1OC(C)=O"
  result: "0.2 (inactive)"

Let us move to another entry and its z-score.
Request: Determine its reported z-score: `C[C@H]1C=CCC(=O)OC[C@H](C)C(=O)N2CCC[C@H]2C(=O)OC1`
Response: 0.263 (inactive)
